# protocol: MTT cytotoxicity assay, 3T3 cells
# Format: cell-based, mouse
# measurement_parameters: mouse, 3T3 mouse embryo fibroblasts, 3T3; 10 000 b/j; koncentrace 30 μM; individual experiments; read-out: MTT viability (0 = 100)
# Protocol: For cytotoxicity experiments, cancer cells were seeded at a density of 5,000 (MCF-7), 10,000 (HL-60) or 2,000 cells/well (HCT116 and A549) in 96-well plates (TPP) for 24 h/37°C prior to the addition of examined agents. […] The viability of cells were determined using an MTT assay (Sigma-Aldrich) according to previously established methods. […] The viability or proliferation of experimental groups was expressed as a percentage of the untreated controls (100%). […]
Here the recorded viability at 72 h, 30 μM is given for each entry.
Supply the numeric figure in %, leaving out any unit text.

chemical_smiles=CCNC(=O)NN=C(c1ccccc1)c1ccccn1 recorded_result=86.3

`CCN=CNN=C(c1ccccc1)c1ccccn1` yielded viability at 72 h, 30 μM of 101

====

# maps each entry to its kaspáza (3) a 7, raw signal, průměry
# Tested on: caspases 3/7
# protocol: Caspase activity, luminescent kit, caspases 3/7
# Format: cell-based, human
# measurement_parameters: 72 hodin; mean
Response field accepts a number only; no unit should be typed.

Example compounds with recorded kaspáza (3) a 7, raw signal, průměry:
compound=CCNC(=S)NN=C(c1ccccc1)c1ccccn1 subject_of_test="caspases 3/7" test_readout="kaspáza (3) a 7, raw signal, průměry" recorded_result=6404.25
compound="CCNC(=O)NN=C(c1ccccc1)c1ccccn1 [E-Bp4eS, 2-benzoylpyridine 4-ethylsemicarbazone]" subject_of_test="caspases 3/7" test_readout="kaspáza (3) a 7, raw signal, průměry" recorded_result=7780.38

Short answer for CCNC(=O)NN=C(c1ccccc1)c1ccccn1 [Z-Bp4eS, 2-benzoylpyridine 4-ethylsemicarbazone] : kaspáza (3) a 7, raw signal, průměry was 7217.5

Note to self: kaspáza (3) a 7, raw signal, průměry recorded for `CCN=CNN=C(c1ccccc1)c1ccccn1` was 7480.75

====

# protocol: MTT cytotoxicity assay, 3T3 cells
# Type: cell-based, mouse
# measurement_parameters: mouse, 3T3 mouse embryo fibroblasts, 3T3; 10 000 b/j; koncentrace 300 μM; individual experiments; read-out: MTT viability (0 = 100)
test_readout: viability at 72 h, 300 μM
Note: a bare number is incomplete; add the unit.

chemical_smiles=CCNC(=O)NN=C(c1ccccc1)c1ccccn1 test_readout="viability at 72 h, 300 μM" recorded_result=85.3%

In plain terms, `CCN=CNN=C(c1ccccc1)c1ccccn1` has a documented viability at 72 h, 300 μM of 80.5%
